Tested on: DNA
assay.method.text: Binding affinity to calf thymus DNA at 1:5 (compound:DNA) molar ratio in 37degC after 18 hrs by thermal denaturation studies
Format: nucleic-acid assay
assay.context: Bos taurus
quantity.name: ΔTm (°C)
The response must be a number in °C with no trailing unit.

Consider the worked cases shown below.
COc1cc2c(cc1OCCCCCn1c(-c3cccs3)nc3ccccc31)NC(=O)[C@@H]1CCCN1C2=O 0.8
COc1cc2c(cc1OCCCCCn1c(-c3cccs3)nc3ccccc31)N=C[C@@H]1CCCN1C2=O 6.1
COc1cc2c(cc1OCCCCn1c(-c3cccs3)nc3ccccc31)N=C[C@@H]1CCCN1C2=O 1
COc1cc2c(cc1OCCCn1c(-c3ccco3)nc3ccccc31)N=C[C@@H]1CCCN1C2=O 6.1
COc1cc2c(cc1OCCCCn1c(-c3ccco3)nc3ccccc31)N=C[C@@H]1CCCN1C2=O 0

[in] Can you look up the measured ΔTm of COc1cc2c(cc1OCCCCCn1c(-c3ccco3)nc3ccccc31)N=C[C@@H]1CCCN1C2=O for me?
[out] 7

[in] Same again, this time with COc1cc2c(cc1OCCCn1c(-c3cccs3)nc3ccccc31)N=C[C@@H]1CCCN1C2=O
[out] 5.1

[in] Same again, this time with COc1cc2c(cc1O)N=C[C@@H]1CCCN1C2=O
[out] 0.7

[in] Same again, this time with COc1cc2c(cc1OCCCn1c(-c3ccco3)nc3ccccc31)NC(=O)[C@@H]1CCCN1C2=O
[out] 0.7
